Target: Neuronal acetylcholine receptor subunit alpha-7 (Homo sapiens, UniProt P36544)
Test: Antagonist activity at human alpha-7 nAChR in tsA201 cells coexpressed with Ric3 by FMP assay
Format: functional, cell-based
Conditions: read-out: pIC50 (converted)
Sequence (P36544 whole entry): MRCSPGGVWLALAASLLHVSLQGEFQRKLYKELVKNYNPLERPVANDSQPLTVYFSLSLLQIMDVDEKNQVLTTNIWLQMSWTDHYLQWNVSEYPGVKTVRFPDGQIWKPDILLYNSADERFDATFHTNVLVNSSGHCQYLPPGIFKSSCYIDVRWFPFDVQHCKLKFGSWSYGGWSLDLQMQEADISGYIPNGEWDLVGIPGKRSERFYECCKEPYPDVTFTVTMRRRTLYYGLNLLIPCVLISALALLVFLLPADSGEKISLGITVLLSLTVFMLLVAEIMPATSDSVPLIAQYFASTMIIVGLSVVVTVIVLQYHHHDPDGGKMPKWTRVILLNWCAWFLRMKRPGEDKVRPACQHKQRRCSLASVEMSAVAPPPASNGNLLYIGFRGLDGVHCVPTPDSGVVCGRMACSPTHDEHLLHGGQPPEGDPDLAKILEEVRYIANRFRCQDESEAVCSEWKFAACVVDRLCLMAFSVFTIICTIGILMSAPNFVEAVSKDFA

| compound | IC50 [µM] |
| --- | --- |
| C1=C2CN3CC[C@@H]4[C@@H]5[C@H]([C@@H](OC1)N1c6ccccc6[C@@]67CCN8CC9=CCO[C@H]([C@@H]([C@H]16)[C@H]9C[C@H]87)N5c1ccccc1)[C@H]2C[C@@H]43 | 1.58 |
| C=CC[N+]12CC[C@@H]3[C@@H]4[C@@H]5[C@@H](OCC=C(C1)[C@@H]5C[C@@H]32)N1c2ccccc2[C@@]23CCN5CC6=CCO[C@H]([C@@H]([C@H]12)[C@H]6C[C@H]53)N4c1ccccc1.[Br-] (some centres undefined) | 0.339 |
| O=[N+]([O-])c1ccc(C[N+]23CC[C@@H]4[C@@H]5[C@@H]6[C@@H](OCC=C(C2)[C@@H]6C[C@@H]43)N2c3ccccc3[C@@]34CC[N+]6(Cc7ccc([N+](=O)[O-])cc7)CC7=CCO[C@H]([C@@H]([C@H]23)[C@H]7C[C@@H]46)N5c2ccccc2)cc1.[Br-].[Br-] (some centres undefined) | 0.372 |
| C[N+](C)(Cc1ccc([N+](=O)[O-])cc1)Cc1c2n(c3ccccc13)Cc1c(C[N+](C)(C)Cc3ccc([N+](=O)[O-])cc3)c3ccccc3n1C2.[Br-].[Br-] | 100 |

====

Biological target: Neuronal acetylcholine receptor subunit alpha-7 (Homo sapiens, UniProt P36544)
Assay: Displacement of [3H]methyllycaconitine from alpha7 nAChR in tsA201 cells co-expressed with Ric3
Assay type: cell-based
Conditions: read-out: pKi (converted)

| compound | Ki [nM] |
| --- | --- |
| C[N+](C)(Cc1ccc([N+](=O)[O-])cc1)Cc1c2n(c3ccccc13)Cc1c(C[N+](C)(C)Cc3ccc([N+](=O)[O-])cc3)c3ccccc3n1C2.[Br-].[Br-] | 3980 |
| Brc1ccc(C[N+]23CC[C@@H]4[C@@H]5[C@@H]6[C@@H](OCC=C(C2)[C@@H]6C[C@@H]43)N2c3ccccc3[C@@]34CC[N+]6(Cc7ccc(Br)cc7)CC7=CCO[C@H]([C@@H]([C@H]23)[C@H]7C[C@@H]46)N5c2ccccc2)cc1.[Br-].[Br-] (stereo partly drawn) | 631 |
| C[N+]12CC[C@@H]3[C@@H]4/C(=C\N5c6ccccc6[C@@]67CC[N+]8(C)CC9=CCO[C@H]([C@@H]([C@H]56)[C@H]9C[C@@H]78)N4c4ccccc4)[C@@H](C[C@@H]31)/C(=C\CO)C2.[I-].[I-] (stereo partly drawn) | 631 |

====

Listed here: items and their measured pKi.
Biological target: Neuronal acetylcholine receptor subunit alpha-7 (Homo sapiens)
Test: Displacement of [3H]methyllycaconitine from chimeric alpha7nAChR/5HT3A in tsA201 cells
Format: cell-based
Sequence (P36544 23-502 limits assumed): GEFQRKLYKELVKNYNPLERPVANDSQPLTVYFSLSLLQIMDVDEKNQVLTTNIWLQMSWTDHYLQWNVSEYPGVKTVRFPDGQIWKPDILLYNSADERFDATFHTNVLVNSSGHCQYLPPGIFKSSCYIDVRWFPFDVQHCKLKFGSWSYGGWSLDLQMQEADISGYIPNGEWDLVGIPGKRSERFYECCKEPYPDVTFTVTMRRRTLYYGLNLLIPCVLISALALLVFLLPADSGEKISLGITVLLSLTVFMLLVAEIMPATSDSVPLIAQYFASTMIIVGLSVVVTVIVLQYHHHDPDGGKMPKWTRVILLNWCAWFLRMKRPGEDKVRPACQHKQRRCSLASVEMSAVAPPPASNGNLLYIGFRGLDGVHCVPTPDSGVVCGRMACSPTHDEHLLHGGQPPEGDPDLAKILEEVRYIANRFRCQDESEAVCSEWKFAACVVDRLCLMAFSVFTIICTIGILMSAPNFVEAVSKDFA

| compound | pKi |
| --- | --- |
| CCN1C[C@]2(COC(=O)c3ccccc3N3C(=O)C[C@H](C)C3=O)CC[C@H](OC)[C@@]34[C@@H]5C[C@H]6[C@H](OC)[C@@H]5[C@](O)(C[C@@H]6OC)[C@](O)([C@@H](OC)[C@H]23)[C@@H]14 [METHYLLYCACONITINE] | 8.79 |
| C[N+]12CC[C@@H]3[C@@H]4/C(=C\N5c6ccccc6[C@@]67CC[N+]8(C)CC9=CCO[C@H]([C@@H]([C@H]56)[C@H]9C[C@@H]78)N4c4ccccc4)[C@@H](C[C@@H]31)/C(=C\CO)C2.[I-].[I-] (stereo partly specified) | 6.01 |
| O=[N+]([O-])c1ccc(C[N+]23CC[C@@H]4[C@@H]5[C@@H]6[C@@H](OCC=C(C2)[C@@H]6C[C@@H]43)N2c3ccccc3[C@@]34CC[N+]6(Cc7ccc([N+](=O)[O-])cc7)CC7=CCO[C@H]([C@@H]([C@H]23)[C@H]7C[C@@H]46)N5c2ccccc2)cc1.[Br-].[Br-] (stereo partly specified) | 7.74 |
| C[N+](C)(C)Cc1c2n(c3ccccc13)Cc1c(C[N+](C)(C)C)c3ccccc3n1C2.[I-].[I-] | 5.35 |
| C[N+]12CC[C@@H]3[C@@H]4[C@@H]5[C@@H](OCC=C(C1)[C@@H]5C[C@@H]32)N1c2ccccc2[C@@]23CC[N+]5(C)CC6=CCO[C@H]([C@@H]([C@H]12)[C@H]6C[C@@H]35)N4c1ccccc1.[I-].[I-] (stereo partly specified) | 6.48 |
| C1=CC([N+]23CC[C@@H]4[C@@H]5[C@@H]6[C@@H](OCC=C(C2)[C@@H]6C[C@@H]43)N2c3ccccc3[C@@]34CC[N+]6(C7C=CCCC7)CC7=CCO[C@H]([C@@H]([C@H]23)[C@H]7C[C@@H]46)N5c2ccccc2)CCC1.[Br-].[Br-] (stereo partly specified) | 6.07 |

====

Molecular target: Neuronal acetylcholine receptor subunit alpha-7 (Homo sapiens)
Experiment: Displacement of [3H]methyllycaconitine from alpha7 nAChR in tsA201 cells co-expressed with Ric3
Type: cell-based
Settings: read-out: Ki
The entries below come with measured log10 Ki values attached.
metric: log10 Ki (log10 of the value in nM)

| compound | log10 Ki |
| --- | --- |
| C1=C2C[N+]3(Cc4ccccc4)CC[C@@H]4[C@@H]5[C@H]([C@@H](OC1)N1c6ccccc6[C@@]67CC[N+]8(Cc9ccccc9)CC9=CCO[C@H]([C@@H]([C@H]16)[C@H]9C[C@@H]78)N5c1ccccc1)[C@H]2C[C@@H]43.[Br-].[Br-] (stereo not given in full) | 2.40 |
| O=[N+]([O-])c1ccc(C[N+]23CCC4[C@@H]5/C(=C\N6c7ccccc7[C@@]78CC[N+]9(Cc%10ccc([N+](=O)[O-])cc%10)CC%10=CCO[C@H]([C@@H]([C@H]67)[C@H]%10C[C@@H]89)N5c5ccccc5)[C@@H](C[C@@H]42)/C(=C\CO)C3)cc1.[Br-].[Br-] (stereo not given in full) | 1.99 |
| C[N+]12CCC34c5ccccc5N5/C=C6/[C@H]7C[C@H]8[C@@]9(CC[N+]8(C)C/C7=C/CO)c7ccccc7N(/C=C(/[C@@H](C[C@@H]31)/C(=C\CO)C2)[C@H]54)[C@@H]69.[Cl-].[Cl-] (stereo not given in full) [TOXIFERINE] | 3.41 |
| C=CC[N+](C)(C)Cc1c2n(c3ccccc13)Cc1c(C[N+](C)(C)CC=C)c3ccccc3n1C2.[Br-].[Br-] | 3.46 |
| C1=CC([N+]23CC[C@@H]4[C@@H]5[C@@H]6[C@@H](OCC=C(C2)[C@@H]6C[C@@H]43)N2c3ccccc3[C@@]34CC[N+]6(C7C=CCCC7)CC7=CCO[C@H]([C@@H]([C@H]23)[C@H]7C[C@@H]46)N5c2ccccc2)CCC1.[Br-].[Br-] (stereo not given in full) | 2.77 |
| C[N+]12CC[C@@H]3[C@@H]4/C(=C\N5c6ccccc6[C@@]67CC[N+]8(C)CC9=CCO[C@H]([C@@H]([C@H]56)[C@H]9C[C@@H]78)N4c4ccccc4)[C@@H](C[C@@H]31)/C(=C\CO)C2.[I-].[I-] (stereo not given in full) | 2.79 |
| COc1ccc(C[N+]23CC[C@@H]4[C@@H]5/C(=C\N6c7ccccc7[C@@]78CC[N+]9(Cc%10ccc(OC)c(OC)c%10)CC%10=CCO[C@H]([C@@H]([C@H]67)[C@H]%10C[C@@H]89)N5c5ccccc5)[C@@H](C[C@@H]42)/C(=C\CO)C3)cc1OC.[Cl-].[Cl-] (stereo not given in full) | 2.30 |
| O=[N+]([O-])c1ccc(C[N+]23CC[C@@H]4[C@@H]5[C@@H]6[C@@H](OCC=C(C2)[C@@H]6C[C@@H]43)N2c3ccccc3[C@@]34CC[N+]6(Cc7ccc([N+](=O)[O-])cc7)CC7=CCO[C@H]([C@@H]([C@H]23)[C@H]7C[C@@H]46)N5c2ccccc2)cc1.[Br-].[Br-] (stereo not given in full) | 1.46 |
| COc1ccc(C[N+]23CC[C@@H]4[C@@H]5[C@@H]6[C@@H](OCC=C(C2)[C@@H]6C[C@@H]43)N2c3ccccc3[C@@]34CC[N+]6(Cc7ccc(OC)c(OC)c7)CC7=CCO[C@H]([C@@H]([C@H]23)[C@H]7C[C@@H]46)N5c2ccccc2)cc1OC.[Cl-].[Cl-] (stereo not given in full) | 1.77 |
| OC/C=C1/C[N+]2(C3C=CCCC3)CC[C@@H]3[C@@H]4/C(=C\N5c6ccccc6[C@@]67CC[N+]8(C9C=CCCC9)CC9=CCO[C@H]([C@@H]([C@H]56)[C@H]9C[C@@H]78)N4c4ccccc4)[C@H]1C[C@@H]32.[Br-].[Br-] (stereo not given in full) | 2.36 |
| C=CC[N+]12CC[C@@]34c5ccccc5N5/C=C6/[C@H]7C[C@H]8[C@@]9(CC[N@@+]8(CC=C)C/C7=C/CO)c7ccccc7N(/C=C(/[C@@H](C[C@@H]31)/C(=C\CO)C2)[C@H]54)[C@@H]69 (stereo not given in full) | 3.04 |
| C[N+](C)(C)Cc1c2n(c3ccccc13)Cc1c(C[N+](C)(C)C)c3ccccc3n1C2.[I-].[I-] | 3.11 |
| C=CC[N+]12CC[C@@H]3[C@@H]4[C@@H]5[C@@H](OCC=C(C1)[C@@H]5C[C@@H]32)N1c2ccccc2[C@@]23CC[N+]5(CC=C)CC6=CCO[C@H]([C@@H]([C@H]12)[C@H]6C[C@@H]35)N4c1ccccc1.[Br-].[Br-] (stereo not given in full) | 1.48 |
| C[N+]12CC[C@@H]3[C@@H]4[C@@H]5[C@@H](OCC=C(C1)[C@@H]5C[C@@H]32)N1c2ccccc2[C@@]23CC[N+]5(C)CC6=CCO[C@H]([C@@H]([C@H]12)[C@H]6C[C@@H]35)N4c1ccccc1.[I-].[I-] (stereo not given in full) | 2.32 |
| OC/C=C1/CN2CC[C@H]3[C@@H]2C[C@@H]1/C1=C/N2c4ccccc4[C@@]45CCN6CC7=CCO[C@H]([C@@H]([C@H]24)[C@H]7C[C@H]65)N(c2ccccc2)[C@@H]13 | 3.23 |
